# Tested on: MDA-MB-231 breast cancer cell lines
# assay-text: Evaluation of inhibition on cell growth (MTS)
# Assay type: cell-based
# condition-details: Homo sapiens, MDA-MB-231, 120 hours
Counter-ions that a name gives are not always drawn.
Reported GI50 values follow for various molecules

molecule	tested-system	GI50
CN[C@@H](C)C(=O)N[C@H](C(=O)N1CCC[C@H]1C(=O)Nc1cc2c(Nc3ccc(F)cc3)ncnc2cc1OC)C(C)(C)C	MDA-MB-231 breast cancer cell lines	≤ 100 nM
CN[C@@H](C)C(=O)N[C@H](C(=O)N1CCC[C@H]1C(=O)Nc1cc2c(Nc3ccc(F)c(Cl)c3)ncnc2cc1OCCOC)C(C)(C)C [Example 5, hydrochloride]	MDA-MB-231 breast cancer cell lines	100 to 1000 nM
CN[C@@H](C)C(=O)N[C@H](C(=O)N1CCC[C@H]1C(=O)Nc1cc2c(Nc3ccc4ccccc4c3)ncnc2cc1OC)C(C)(C)C	MDA-MB-231 breast cancer cell lines	≤ 100 nM
CNc1ncnc2cc(OC)c(NC(=O)[C@@H]3CCCN3C(=O)[C@@H](NC(=O)[C@H](C)NC)C(C)(C)C)cc12	MDA-MB-231 breast cancer cell lines	≤ 100 nM
CN[C@@H](C)C(=O)N[C@H](C(=O)N1CCC[C@H]1C(=O)Nc1cc2c(Nc3ccc(F)c(Cl)c3F)ncnc2cc1OCCOC)C(C)(C)C [Example 6, hydrochloride]	MDA-MB-231 breast cancer cell lines	100 to 1000 nM
CN[C@@H](C)C(=O)N[C@H](C(=O)N1CCC[C@H]1C(=O)Nc1cc2c(NCc3ccccc3)ncnc2cc1OC)C(C)(C)C.Cl [Example 18, hydrochloride]	MDA-MB-231 breast cancer cell lines	≤ 100 nM
CN[C@@H](C)C(=O)N[C@H](C(=O)N1CCC[C@H]1C(=O)Nc1cc2c(Nc3c(F)cccc3F)ncnc2cc1OC)C(C)(C)C	MDA-MB-231 breast cancer cell lines	≤ 100 nM
CN[C@@H](C)C(=O)N[C@H](C(=O)N1CCC[C@H]1C(=O)Nc1cc2c(Nc3ccc(F)c(Cl)c3F)ncnc2cc1O)C(C)(C)C	MDA-MB-231 breast cancer cell lines	≤ 100 nM
CCN1CCN(c2ccc(Nc3ncnc4cc(OC)c(NC(=O)[C@@H]5CCCN5C(=O)[C@@H](NC(=O)[C@H](C)NC)C(C)(C)C)cc34)cc2)CC1	MDA-MB-231 breast cancer cell lines	100 to 1000 nM
CN[C@@H](C)C(=O)N[C@H](C(=O)N1CCC[C@H]1C(=O)Nc1cc2c(Nc3ccc(C4CCCN(C)C4)cc3)ncnc2cc1OC)C(C)(C)C (stereo partly drawn) [Example 109, hydrochloride]	MDA-MB-231 breast cancer cell lines	≤ 100 nM
CN[C@@H](C)C(=O)N[C@H](C(=O)N1CCC[C@H]1C(=O)Nc1cc2c(Nc3ccc(CN4CCCCC4)cc3)ncnc2cc1OC)C(C)(C)C [Example 104, hydrochloride]	MDA-MB-231 breast cancer cell lines	≤ 100 nM
CN[C@@H](C)C(=O)N[C@H](C(=O)N1CCC[C@H]1C(=O)Nc1cc2c(Nc3ccc(-c4ccccc4)cc3)ncnc2cc1OC)C(C)(C)C [Example 39, hydrochloride]	MDA-MB-231 breast cancer cell lines	≤ 100 nM
